The reported measurements were obtained from patent US20240270821A1.

- Measured Target: T1, human GIP receptor (human) (UniProt P48546)
- T1 sequence (looked up): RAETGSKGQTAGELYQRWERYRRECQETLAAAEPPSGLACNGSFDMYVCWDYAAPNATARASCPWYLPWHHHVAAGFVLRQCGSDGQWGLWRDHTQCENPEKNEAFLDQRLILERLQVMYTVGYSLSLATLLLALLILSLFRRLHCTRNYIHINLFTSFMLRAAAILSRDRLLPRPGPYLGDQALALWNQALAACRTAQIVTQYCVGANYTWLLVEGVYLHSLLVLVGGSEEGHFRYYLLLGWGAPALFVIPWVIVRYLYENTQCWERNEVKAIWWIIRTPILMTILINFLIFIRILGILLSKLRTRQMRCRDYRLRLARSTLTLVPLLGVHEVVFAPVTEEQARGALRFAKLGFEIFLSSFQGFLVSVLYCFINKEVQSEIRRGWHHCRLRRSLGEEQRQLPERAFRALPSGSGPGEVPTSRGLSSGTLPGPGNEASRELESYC
- Experimental Details: cell-based or functional assay
Starred links: 1 amine or outer side, 2 acyl side, 3 side chain; linkers in the order of their positions; H or OH if unused. Non-standard residues stand in square brackets, D forms with d. Groups on a side chain read outwards from the residue. No end group written: not given here. *: point of attachment. C18 diacid = O=C(O)CCCCCCCCCCCCCCCCC(=O)*; Phe(4-CN) = N#Cc1ccc(C[C@H](N)C(=O)O)cc1; αMePhe(2-F) = C[C@](N)(Cc1ccccc1F)C(=O)O; γGlu = O=C(O)[C@H](CCC(=O)[*:2])N[*:1]; αMe4Pal = C[C@](N)(Cc1ccncc1)C(=O)O; 4Pal = N[C@@H](Cc1ccncc1)C(=O)O; αMeL = CC(C)C[C@](C)(N)C(=O)O; Orn = NCCC[C@H](N)C(=O)O; Aib = CC(C)(N)C(=O)O
Assign classes using reported cAMP Rel EC50, nM (1% HSA) values and the ranges Low = under 20 nM, Medium = from 20 nM up to 30 nM, High = 30 nM and over, please.

Query: Please classify: YXQGTFTSDFSXXLDKKAQXAFIEYLLEXGESSGAPPPSGS (acylated; synthetic construct; SITE 2: note = 2-Aminoisobutyric Acid; SITE 12: note = L-ornithine; SITE 13: note = alpha-methyl-leucine; SITE 17: note = Lysine is chemically modified through conjugation of the epsilon-amino group of the Lysine side chain with (gamma-Glu)-(2-[2-(2-Amino-ethoxy)-ethoxy]-acetyl)) [Example 244]
Result: Low

Query: Try this binder next: YXQGTFTSDFSQXLDKKAQXAFIEYLLEGGPSSGAPPPSGS (synthetic construct; SITE 2: note = 2-Aminoisobutyric Acid; SITE 13: note = alpha-methyl-leucine; SITE 17: note = Lysine is chemically modified through conjugation of the epsilon-amino group of the Lysine side chain with (2-[2-(2-Amino-ethoxy)-ethoxy]-acetyl)-(gamma-Glu)-CO-(CH2) 16-CO2H; SITE 20: n) [Example 150]
Result: High

Query: Here is the next binder: YXQGTFTSDXSXXLDXKAQXQFIEYLLAGGPSSGAPPPSGSEE (non-natural residues; (γGlu)2-C18 diacid on Lys; C-terminal amide; synthetic construct; SITE 2: note = 2-Aminoisobutyric Acid; SITE 10: note = 3-(4-Pyridyl)-L-alanine; SITE 12: note = L-ornithine; SITE 13: note = alpha-methyl-leucine; SITE 16: note = L-ornithine; SITE 17: note = Lysine is chemically modified through conjugation of the epsilon-amino group of the Lys) [Example 1002]
Result: Low

Query: Further, for YXQGTFTSDXSXXLDKKAQXAFIEYLIAGGESSGAPPPSGSEE (Aib, 4Pal, Orn, αMeL, Me4Pal; acylated Lys; C-terminal amide; synthetic construct; SITE 2: note = 2-Aminoisobutyric Acid; SITE 10: note = 3-(4-Pyridyl)-L-alanine; SITE 12: note = L-ornithine; SITE 13: note = alpha-methyl-leucine; SITE 17: note = Lysine is chemically modified through conjugation of the epsilon-amino group of the Lysine side chain with (gamma-Gl)) [Example 964] ?
Result: Medium

Query: Then this binder: YXQGTFTSDXSQXLDKKAQXAFIEYLIEXGESSGAPPPSGS (acylated; synthetic construct; SITE 2: note = 2-Aminoisobutyric Acid; SITE 10: note = 3-(4-Pyridyl)-L-alanine; SITE 13: note = alpha-methyl-leucine; SITE 17: note = Lysine is chemically modified through conjugation of the epsilon-amino group of the Lysine side chain with (2-[2-(2-Amino-ethoxy)-ethoxy]-acetyl)) [Example 226]
Result: High

Query: Subsequent entry: YXQGTFTSDXSXXLDXKAQXXFIEYLLAGGPSSGAPPPSGSEE (non-natural residues; C18 diacid-(γ-Glu)2 acyl on Lys; C-terminal amide; synthetic construct; SITE 2: note = 2-Aminoisobutyric Acid; SITE 10: note = 3-(4-Pyridyl)-L-alanine; SITE 12: note = L-ornithine; SITE 13: note = alpha-methyl-leucine; SITE 16: note = L-ornithine; SITE 17: note = Lysine is chemically modified through conjugation of the epsilon-amino group of the Lys) [Example 1004]
Result: High

Query: Also YXQGTXTSDXXIXLDXKYQXEFIEXLVEGGPSSGAPPPSGS (synthetic construct; SITE 2: note = 2-Aminoisobutyric Acid; SITE 6: note = alpha-methyl-2-fluoro-L-phenylalanine; SITE 10: note = 3-(4-Pyridyl)-L-alanine; SITE 11: note = alpha-methyl-L-serine; SITE 13: note = alpha-methyl-leucine; SITE 16: note = L-ornithine; SITE 17: note = Lysine is chemically mo) [Example 767] ?
Result: Low

Query: Continue with YXQGTXTSDXSIXLDKKAQXAFIEYLEEGGPSSGAPEPS (synthetic construct; SITE 2: note = 2-Aminoisobutyric Acid; SITE 6: note = alpha-methyl-2-fluoro-L-phenylalanine; SITE 10: note = 3-(4-Pyridyl)-L-alanine; SITE 13: note = alpha-methyl-leucine; SITE 17: note = Lysine is chemically modified through conjugation of the epsilon-amino group of the Lysine) [Example 443]
Result: Low

Query: Same read-out for YXQGTFTSDXSXXLDKKAQXAFIEYLIAGGPSSGEPPPSGTE (non-natural residues (Aib, 4Pal, Orn, αMeL, Me4Pal); lipidated K; amide; synthetic construct; SITE 2: note = 2-Aminoisobutyric Acid; SITE 10: note = 3-(4-Pyridyl)-L-alanine; SITE 12: note = L-ornithine; SITE 13: note = alpha-methyl-leucine; SITE 17: note = Lysine is chemically modified through conjugation of the epsilon-amino group of the Lysine side chain with (gamma-Gl)) [Example 980] ?
Result: Low

Query: Would you mind doing YXQGTXTSDXXIXLDXKAQXXFIEXLSEGGPSSGEPPPE (synthetic construct; SITE 2: note = 2-Aminoisobutyric Acid; SITE 6: note = alpha-methyl-2-fluoro-L-phenylalanine; SITE 10: note = 3-(4-Pyridyl)-L-alanine; SITE 11: note = alpha-methyl-L-serine; SITE 13: note = alpha-methyl-leucine; SITE 16: note = L-ornithine; SITE 17: note = Lysine is chemically mo) [Example 438] as well?
Result: High

Query: Then what about the binder Y[Aib]QGTFTSD[4Pal]SQ[αMeL]LD[Orn]KK([Glu-γGlu-C18 diacid])AQ[αMe4Pal]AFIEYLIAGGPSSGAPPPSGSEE-NH2 [Example 1032] ?
Result: Medium

Query: Here is the next binder: YXQGTFTSDXSXXLDXKAQXAFIEYLIAGGPSSGEPPPSGTEE (non-natural residues, acylated Lys, C-terminal amide; synthetic construct; SITE 2: note = 2-Aminoisobutyric Acid; SITE 10: note = 3-(4-Pyridyl)-L-alanine; SITE 12: note = L-ornithine; SITE 13: note = alpha-methyl-leucine; SITE 16: note = L-ornithine; SITE 17: note = Lysine is chemically modified through conjugation of the epsilon-amino group of the Lys) [Example 985]
Result: Medium

Query: What do you have for YXQGTFTSDFSXXLDKKAQXAFIEYLLEAGPSSGAPPPEGE (acylated; synthetic construct; SITE 2: note = 2-Aminoisobutyric Acid; SITE 12: note = L-ornithine; SITE 13: note = alpha-methyl-leucine; SITE 17: note = Lysine is chemically modified through conjugation of the epsilon-amino group of the Lysine side chain with (2-[2-(2-Amino-ethoxy)-ethoxy]-acetyl)-(gamma-Glu)) [Example 206] ?
Result: High

Query: Request: Y[Aib]QGT[αMePhe(2-F)]TSDYSILLDKQAAKEFIEYLIEGGPSSGEPPPSEG-NH2 (not fully specified (residue 20)) [Example 348]
Result: High

Query: Also YXQGTXTSDYSILLDKKAQXAFIEYLEEGGPSSGAPPPS (synthetic construct; SITE 2: note = 2-Aminoisobutyric Acid; SITE 6: note = alpha-methyl-2-fluoro-L-phenylalanine; SITE 17: note = Lysine is chemically modified through conjugation of the epsilon-amino group of the Lysine side chain with (gamma-Glu)2-CO-(CH2)16-CO2H; SITE 20: note = 2-Aminoisobutyric) [Example 406] , if possible.
Result: Low

Query: Do the same for YXQGTXTSDXSIXLDKKAQXAFIEYLEEGGPSSGEPPPS (synthetic construct; SITE 2: note = 2-Aminoisobutyric Acid; SITE 6: note = alpha-methyl-2-fluoro-L-phenylalanine; SITE 10: note = 3-(4-Pyridyl)-L-alanine; SITE 13: note = alpha-methyl-leucine; SITE 17: note = Lysine is chemically modified through conjugation of the epsilon-amino group of the Lysine) [Example 442] please
Result: Low

Query: Same for YXQGTFTSDFSQXLDKKAQXAFIEYLIEGGESSGAPPPSGS (synthetic construct; SITE 2: note = 2-Aminoisobutyric Acid; SITE 13: note = alpha-methyl-leucine; SITE 17: note = Lysine is chemically modified through conjugation of the epsilon-amino group of the Lysine side chain with (2-[2-(2-Amino-ethoxy)-ethoxy]-acetyl)-(gamma-Glu)-CO-(CH2) 16-CO2H; SITE 20: n) [Example 795]
Result: High

Query: Okay, and YXQGTXTSDXSILLDKKAQXAFIEYLEEGGPSSGAPPPS (not fully specified; synthetic construct; SITE 2: note = 2-Aminoisobutyric Acid; SITE 6: note = alpha-methyl-2-fluoro-L-phenylalanine; SITE 10: note = 3-(4-Pyridyl)-L-alanine; SITE 17: note = Lysine is chemically modified through conjugation of the epsilon-amino group of the Lysine side chain with (gamma-Glu)2-CO-(CH2)1) [Example 413] ?
Result: Medium

Query: Subsequent entry: YXQGTFTSDFSQXLDKKAQXAFIEYLLEAGPSSGAPPPSGS (synthetic construct; SITE 2: note = 2-Aminoisobutyric Acid; SITE 13: note = alpha-methyl-leucine; SITE 17: note = Lysine is chemically modified through conjugation of the epsilon-amino group of the Lysine side chain with (2-[2-(2-Amino-ethoxy)-ethoxy]-acetyl)-(gamma-Glu)-CO-(CH2) 16-CO2H; SITE 20: n) [Example 775]
Result: Medium

Query: Follow-up entry: YXQGTXTSDYSIXLDKKAQXAFIEYLEEGGPSSGAPPPE (synthetic construct; SITE 2: note = 2-Aminoisobutyric Acid; SITE 6: note = alpha-methyl-2-fluoro-L-phenylalanine; SITE 13: note = alpha-methyl-leucine; SITE 17: note = Lysine is chemically modified through conjugation of the epsilon-amino group of the Lysine side chain with (2-[2-(2-Amino-ethoxy)-et)) [Example 400]
Result: Low

Query: Record: Y[Aib]QGT[αMePhe(2-F)]TSD[Phe(4-CN)]SILLDKQAQKAFIEYLLEGGPSSGEPPPSEG-NH2 (not fully specified (residue 20)) [Example 352]
Result: High
